- System: K562 CRISPRi cells
- procedure.summary: Constant region variant library pooled growth screen, K562
- Format: cell-based, human
- cond: sgRNA constant region variants; activity relative to the original, un-modified constant region cr995
Mean relative activity overview
Reply briefly: the number, and no unit.

Here are 6 molecules together with their reported answers.
cr589 (nucleic acid, listed as DNA, chemistry not fully specified) guide: GTTTAAGAGCTAAGCTGGAAACAGCATAGCAAGTTTAAATAATGATATTCAGTTATCAACTTGAAAAAGTGGCACCGAGTCGGTGCT :: −0.005108
cr105 (nucleic acid, listed as DNA, chemistry not fully specified) guide: GTTTAAGAGCTAAGCTGGAAACAGCATAGCAAGTTTAAATAAGGCCAGTCCGTTATCAACTTGACAAAGTGGCACCGAGTCGGTGCT :: 0.8672
cr756 (nucleic acid, listed as DNA, chemistry not fully specified) guide: GTTTAAGAGCTAAGCTGGAAACAGCATAGCAAGTTTAAATAAGGTTAATCCGTTATCAACTTGAAAAAGTGGCAACGAGTCGTTGCT :: 1.041
cr236 (nucleic acid, listed as DNA, chemistry not fully specified) guide: GTTTAAGAGCTAAGCTGGAAACAACATAGCAAGTTTAAATAAGGCTAGTCCGTTATCAACTTGAAAAAGTGGCACCGAGTCGGTGCT :: 0.8745
cr241 (nucleic acid, listed as DNA, chemistry not fully specified) guide: GTTTAAGAGCTAAGCTGGAAACAGCATAGCAACTTTAAATAAGGCTAGTCCGTTATCAACATGAAAATGTGGCACCGAGTCGGTGCT :: 0.03304
cr273 (nucleic acid, listed as DNA, chemistry not fully specified) guide: GTTTAAGAGCTAAGCTGGAAACAGCATAGCAAGTTTAAATAAGTCTAGTACGTTATCAACTTGAGAAAGTGGCACCGAGTCGGTGCT :: 0.6725

Item: cr333 (nucleic acid, listed as DNA, chemistry not fully specified) guide: GTTTAAGAGCTAAGCTGGAAACAGCATAGCAAGTTTAAATAAGGCTAGTCCGTTATCAAGGTGAAAACCTGGCACCGAGTCGGTGCT | Mean relative activity: 1.072
